Test system: MCF-7 cells
test-details: In vitro anti-proliferative SRB assay, MCF-7
Format: cell-based, human
run-conditions: selectivity index, L02 vs MCF7
# label = Criterion met if SI (CC50 L02/IC50 MCF7) >= 2 else Criterion not met

Example cases with answers are listed next.
COc1cccc(OC)c1/C=C/C(=O)c1cccc(C)c1 :: Criterion not met
CCOc1ccccc1C(=O)/C=C/c1c(OC)cccc1OC :: Criterion met
COc1cc(C(=O)/C=C/c2c(OC)cccc2OC)ccc1O :: Criterion met
COc1cccc(OC)c1/C=C/C(=O)c1ccc(C)cc1 :: Criterion met
COc1cccc(OC)c1/C=C/C(=O)c1ccccc1OCc1ccccc1 :: Criterion met

State whether the measured SI (CC50 L02/IC50 MCF7) reaches 2, counting equality as reaching it, for "COc1cccc(OC)c1/C=C/C(=O)c1ccc2c(c1)CCO2"
Criterion met

Now the compound "COc1cccc(OC)c1/C=C/C(=O)c1ccccc1O"
Criterion met

Now the compound "COc1ccccc1C(=O)/C=C/c1c(OC)cccc1OC"
Criterion not met

Now the compound "COc1ccc(C(=O)/C=C/c2cc(OC)cc(OC)c2)cc1"
Criterion not met

Now the compound "COc1ccc(C(=O)/C=C/c2c(OC)cccc2OC)c(O)c1"
Criterion met

Now the compound "COc1cccc(OC)c1/C=C/C(=O)c1ccc2c(c1)OCO2"
Criterion met

---

Tested on: HepG2 cells
test-details: In vitro anti-proliferative SRB assay, HepG2
Assay type: cell-based, human
run-conditions: selectivity index, L02 vs HepG2
metric: SI (CC50 L02/IC50 HepG2)
Returns: the value as a bare number; no unit string appended.

COc1ccc(OC)c(C(=O)/C=C/c2c(OC)cccc2OC)c1 :: 10.7
COc1ccccc1C(=O)/C=C/c1c(OC)cccc1OC :: 4.3
COc1cccc(OC)c1/C=C/C(=O)c1cccc(Br)c1 :: 5.4
COc1cccc(OC)c1/C=C/C(=O)c1ccc(F)cc1 :: 2.6
COc1cccc(OC)c1/C=C/C(=O)c1cccc(F)c1 :: 3.3

Report SI (CC50 L02/IC50 HepG2) for "COc1cccc(C(=O)/C=C/c2c(OC)cccc2OC)c1" please.
2.6

Now the compound "COc1cccc(OC)c1/C=C/C(=O)c1cccc(O)c1"
2.7

Now the compound "COc1cccc(OC)c1/C=C/C(=O)c1ccc2c(c1)CCO2"
3.3

Now the compound "COc1cccc(OC)c1/C=C/C(=O)c1ccccc1OCc1ccccc1"
13.9

Now the compound "COc1cccc(OC)c1/C=C/C(=O)c1cccc(N)c1"
7.6

---

Tested on: five human cancer cell lines (HepG2, HeLa, MCF-7, A549 and SW1990)
test-details: In vitro anti-proliferative SRB assay, summary statements over the five-line panel
Assay type: cell-based
run-conditions: most of their in vitro IC50 values against the five human cancer lines
metric: IC50

Please review the entries below; each comes with its answer.
COc1cccc(OC)c1/C=C/C(=O)c1cccc(N)c1 [b23] :: < 10 µM
COc1ccccc1C(=O)/C=C/c1c(OC)cccc1OC [b6] :: < 10 µM
COc1cc(C(=O)/C=C/c2c(OC)cccc2OC)ccc1O [b29] :: < 10 µM
CCOc1ccccc1C(=O)/C=C/c1c(OC)cccc1OC [b8] :: < 10 µM

Report IC50 for CCOc1ccc(C(=O)/C=C/c2c(OC)cccc2OC)cc1OC [b16] please.
< 10 µM

Now the molecule COc1cccc(OC)c1/C=C/C(=O)c1ccccc1OCc1ccccc1 [b11]
< 10 µM

Now the molecule COc1cccc(OC)c1/C=C/C(=O)c1ccc(-c2ccccc2)cc1 [b22]
< 10 µM

Now the molecule COc1ccc(OC)c(C(=O)/C=C/c2c(OC)cccc2OC)c1 [b18]
< 10 µM

---

Test system: SW1990 cells
test-details: In vitro anti-proliferative SRB assay, SW1990
Format: cell-based, human
run-conditions: selectivity index, L02 vs SW1990
# label = Met if SI (CC50 L02/IC50 SW1990) >= 2 else Not met

Example cases with answers are listed next.
COc1cccc(OC)c1/C=C/C(=O)c1ccc2c(c1)CCO2 [b21] :: Met
COc1cccc(OC)c1/C=C/C(=O)c1ccccc1 [b1] :: Not met
COc1cccc(OC)c1/C=C/C(=O)c1ccc(C)c(C)c1 [b5] :: Not met

State whether the measured SI (CC50 L02/IC50 SW1990) reaches 2, counting equality as reaching it, for COc1cc(C(=O)/C=C/c2c(OC)cccc2OC)ccc1O [b29]
Met

Now the compound COc1cccc(OC)c1/C=C/C(=O)c1cccc(F)c1 [b32]
Met

Now the compound COc1cccc(C(=O)/C=C/c2c(OC)cccc2OC)c1 [b7]
Not met

---

System: MCF-7 cells
test-details: In vitro anti-proliferative SRB assay, MCF-7
Format: cell-based, human
run-conditions: selectivity index, L02 vs MCF7
metric: SI (CC50 L02/IC50 MCF7)
Returns: the value as a bare number; no unit string appended.

Please review the entries below; each comes with its answer.
COc1cccc(OC)c1/C=C/C(=O)c1cccc(N)c1 :: 5.0
COc1cccc(OC)c1/C=C/C(=O)c1cccc(F)c1 :: 2.8
COc1cccc(OC)c1/C=C/C(=O)c1ccc(O)cc1O :: 1.5
COc1cccc(OC)c1/C=C/C(=O)c1ccccc1 :: 1.2

Report SI (CC50 L02/IC50 MCF7) for "COc1cccc(OC)c1/C=C/C(=O)c1ccccc1C" please.
1.9

---

Test system: A549 cells
test-details: In vitro anti-proliferative SRB assay, A549
Assay type: cell-based, human
run-conditions: selectivity index, L02 vs A549
SI (CC50 L02/IC50 A549) reference
Returns: the value as a bare number; no unit string appended.

CCOc1ccc(C(=O)/C=C/c2c(OC)cccc2OC)cc1OC [b16] :: 7.7

Report SI (CC50 L02/IC50 A549) for COc1cccc(OC)c1/C=C/C(=O)c1ccccc1OCc1ccccc1 [b11] please.
10.5

Now the compound COc1cccc(C(=O)/C=C/c2c(OC)cccc2OC)c1 [b7]
1.3

Now the compound COc1cccc(OC)c1/C=C/C(=O)c1ccc(-c2ccccc2)cc1 [b22]
8.3

Now the compound CCOc1cccc(C(=O)/C=C/c2c(OC)cccc2OC)c1 [b9]
1.3

---

CC50 at 48 h reference
test-details: Cytotoxicity (SRB) against non-tumoral L02 cells
Type: cell-based, human
run-conditions: human, L02 cells (non-tumoral human liver cell line); increasing concentrations up to 100 μM; mean ± SD of at least three independent experiments; read-out: Normal Human Cell Lines, CC50, L02
Give a bare numeral; the unit µM is implied.

Please review the entries below; each comes with its answer.
CCOc1cc(OC)ccc1C(=O)/C=C/c1c(OC)cccc1OC :: 10.9
COc1cccc(OC)c1/C=C/C(=O)c1ccccc1C :: 35.9
COc1cccc(OC)c1/C=C/C(=O)c1ccccc1O :: 24.2
COc1cccc(OC)c1/C=C/C(=O)c1ccc(-c2ccccc2)cc1 :: 14.5

Report CC50 at 48 h for "COc1ccc(OC)c(C(=O)/C=C/c2c(OC)cccc2OC)c1" please.
17

Now the compound "COc1cccc(OC)c1/C=C/C(=O)c1cccc(C)c1"
33.3

---

System: A549 cells
test-details: In vitro anti-proliferative SRB assay, A549
Type: cell-based, human
run-conditions: selectivity index, L02 vs A549
Description: HepG2 and MCF7 cells were grown in the Eagle’s minimum essential medium with Earle’s balanced salts (MEM-EBSS) medium, HeLa, A549 and L02 cells were grown in Dulbecco’s Modified Eagle Media (DMEM), SW1990 cells were grown in RPMI-1640 medium, and HMLE cell were grown in DMEM/F-12 medium. […] Cells were seeded into 96-well plates (4000 cells/well) and incubated at 37 °C in a humidified 5% CO2 atmosphere. […] Cell viability was evaluated using the sulforhodamine B (SRB) assay as previous described.
metric: SI (CC50 L02/IC50 A549)

Please review the entries below; each comes with its answer.
COc1cccc(OC)c1/C=C/C(=O)c1cccc(N)c1 :: 5.9
COc1cccc(OC)c1/C=C/C(=O)c1ccc(Cl)c(Cl)c1 :: >3.6
COc1cccc(OC)c1/C=C/C(=O)c1ccc(Cl)cc1 :: <2.8
CCOc1ccc(C(=O)/C=C/c2c(OC)cccc2OC)cc1 :: 1.6
COc1cccc(OC)c1/C=C/C(=O)c1ccccc1C :: 1.4

Here is the next item to consider.
Report SI (CC50 L02/IC50 A549) for "COc1cccc(OC)c1/C=C/C(=O)c1ccc(F)cc1" please.
<2.1

---

Tested on: SW1990 cells
test-details: In vitro anti-proliferative SRB assay, SW1990
Format: cell-based, human
run-conditions: selectivity index, HMLE vs SW1990
metric: SI (CC50 HMLE/IC50 SW1990)
Returns: the value as a bare number; no unit string appended.

Please review the entries below; each comes with its answer.
CCOc1cccc(C(=O)/C=C/c2c(OC)cccc2OC)c1 :: 0.9
COc1cccc(OC)c1/C=C/C(=O)c1ccc(Cl)c(Cl)c1 :: 1.1
COc1ccccc1C(=O)/C=C/c1c(OC)cccc1OC :: 0.4
COc1cccc(OC)c1/C=C/C(=O)c1cccc(N)c1 :: 1.1
COc1cccc(OC)c1/C=C/C(=O)c1cccc(O)c1 :: 0.3
COc1ccc(C(=O)/C=C/c2c(OC)cccc2OC)cc1OC :: 0.8
COc1cccc(OC)c1/C=C/C(=O)c1cccc(OCc2ccccc2)c1 :: 1.4
COc1cccc(OC)c1/C=C/C(=O)c1cccc(Cl)c1 :: 0.4
CCOc1ccccc1C(=O)/C=C/c1c(OC)cccc1OC :: 0.1
CCOc1ccc(C(=O)/C=C/c2c(OC)cccc2OC)cc1 :: 0.7

Report SI (CC50 HMLE/IC50 SW1990) for "CCOc1ccc(C(=O)/C=C/c2c(OC)cccc2OC)cc1OC" please.
1.2

Now the compound "COc1cccc(OC)c1/C=C/C(=O)c1ccc2c(c1)CCO2"
0.6

Now the compound "COc1ccc(C(=O)/C=C/c2c(OC)cccc2OC)c(O)c1"
0.6

Now the compound "COc1cccc(OC)c1/C=C/C(=O)c1ccc(-c2ccccc2)cc1"
1.8

Now the compound "CCOc1cc(OC)ccc1C(=O)/C=C/c1c(OC)cccc1OC"
0.8

Now the compound "COc1cccc(OC)c1/C=C/C(=O)c1ccc(O)cc1"
0.6

Now the compound "COc1cccc(OC)c1/C=C/C(=O)c1ccc2c(c1)OCO2"
0.5

Now the compound "COc1cc(C(=O)/C=C/c2c(OC)cccc2OC)ccc1O"
2.1

Now the compound "COc1ccc(C(=O)/C=C/c2cc(OC)cc(OC)c2)cc1"
0.2
